Molecular target: T1, Cynomolgus CXCR2 (cynomolgus, UniProt Q28519 3-353 (rhesus entry))
T1 chain: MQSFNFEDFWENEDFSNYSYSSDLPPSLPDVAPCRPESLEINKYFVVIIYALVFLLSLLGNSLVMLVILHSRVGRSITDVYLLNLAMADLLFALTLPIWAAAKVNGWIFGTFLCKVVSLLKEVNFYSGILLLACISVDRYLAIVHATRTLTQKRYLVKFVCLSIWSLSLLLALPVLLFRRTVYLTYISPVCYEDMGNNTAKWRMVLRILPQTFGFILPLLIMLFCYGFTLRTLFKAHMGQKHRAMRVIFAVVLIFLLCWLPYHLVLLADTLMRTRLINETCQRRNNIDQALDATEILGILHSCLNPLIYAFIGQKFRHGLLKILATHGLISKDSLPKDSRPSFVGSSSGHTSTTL
Assay: cell-based or functional assay
# key: entry, value: Cynomologus WBSC IC50 (rhGROα)
Numbers only; they are read as nM.

Query: Cynomologus WBSC IC50 (rhGROα); subject: CXCR20028 (other, Biparatopic: two VHH joined by a GlySer linker; also called 97A9-35GS-54B12; 97A9-54B12; not shown: C-terminal c-myc tag and His6 tag coded by pAX100) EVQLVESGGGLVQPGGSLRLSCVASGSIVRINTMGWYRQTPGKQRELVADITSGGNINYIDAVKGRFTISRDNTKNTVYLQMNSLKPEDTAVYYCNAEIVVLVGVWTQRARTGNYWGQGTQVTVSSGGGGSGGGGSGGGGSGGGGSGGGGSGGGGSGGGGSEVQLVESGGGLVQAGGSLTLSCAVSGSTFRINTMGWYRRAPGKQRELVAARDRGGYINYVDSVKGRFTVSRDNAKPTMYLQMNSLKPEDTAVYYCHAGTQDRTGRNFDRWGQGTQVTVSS
1.72

Query: Cynomologus WBSC IC50 (rhGROα); subject: CXCR20035 (other, Biparatopic: two VHH joined by a GlySer linker; also called 54B12-35GS-163E3; 54B12-163E3; not shown: C-terminal c-myc tag and His6 tag coded by pAX100) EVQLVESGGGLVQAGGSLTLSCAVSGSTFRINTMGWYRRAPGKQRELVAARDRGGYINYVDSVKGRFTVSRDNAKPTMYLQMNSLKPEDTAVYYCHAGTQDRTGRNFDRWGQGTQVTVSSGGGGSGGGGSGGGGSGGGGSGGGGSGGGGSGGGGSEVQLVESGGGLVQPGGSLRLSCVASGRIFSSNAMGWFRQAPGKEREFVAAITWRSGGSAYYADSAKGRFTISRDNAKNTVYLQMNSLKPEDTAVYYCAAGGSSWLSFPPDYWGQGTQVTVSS
0.43

Query: Cynomologus WBSC IC50 (rhGROα); subject: CXCR20033 (bispecific antibody, Biparatopic: two VHH joined by a GlySer linker; also called 163E3-35GS-2B2; 163E3-2B2; not shown: C-terminal c-myc tag and His6 tag coded by pAX100) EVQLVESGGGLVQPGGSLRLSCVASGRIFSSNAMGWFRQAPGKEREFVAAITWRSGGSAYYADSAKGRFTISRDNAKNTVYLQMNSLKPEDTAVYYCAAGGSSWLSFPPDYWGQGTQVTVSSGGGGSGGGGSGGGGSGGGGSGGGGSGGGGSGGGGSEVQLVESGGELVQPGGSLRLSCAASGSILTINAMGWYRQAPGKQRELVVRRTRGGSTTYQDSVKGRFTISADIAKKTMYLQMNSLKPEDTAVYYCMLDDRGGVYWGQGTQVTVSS
0.42
